# Test system: MCF7
# Experiment Description: Cytotoxicity against human MCF7 cells after 18 hrs by MTT assay
# Type: functional, cell-based
# Assay Context: MCF7, 18 h
pIC50: −log10 of the molar value. Counter-ions that a name gives are not always drawn.
Catalogue of pIC50 readings, one per entry.

Here is how some compounds turned out for pIC50.
| Compound | Recorded Measurement |
| --- | --- |
| Cc1ccc(S(=O)(=O)N2Cc3ccccc3OC[C@@H]2Cc2ccc(O)cc2)cc1 | 4.54 |
| COc1ccc2c(c1)OC[C@H](Cc1ccc(OCCN3CCOCC3)cc1)N(S(=O)(=O)c1ccc(C)cc1)C2 | < 4.30 |
| Cc1ccc(S(=O)(=O)N2Cc3ccccc3OC[C@@H]2Cc2ccccc2)cc1 | < 4.30 |
| Cc1ccc(S(=O)(=O)N2Cc3ccccc3OC[C@@H]2C)cc1 | < 4.30 |
| CC/C(=C(\c1ccccc1)c1ccc(OCCN(C)C)cc1)c1ccccc1 [TAMOXIFEN CITRATE] | 4.99 |

Q: What value of pIC50 has been recorded for this entry: COc1cccc2c1OC[C@H](Cc1ccc(OCCN(C)C)cc1)N(S(=O)(=O)c1ccc(C)cc1)C2
Ans: < 4.30

Q: What value of pIC50 has been recorded for this entry: Cc1ccc(S(=O)(=O)N2Cc3ccccc3OC[C@@H]2CC(C)C)cc1
Ans: < 4.30

Q: What value of pIC50 has been recorded for this entry: CCC(C)[C@H]1COc2ccccc2CN1S(=O)(=O)c1ccc(C)cc1 (some centres undefined)
Ans: < 4.30

Q: What value of pIC50 has been recorded for this entry: Cc1ccc(S(=O)(=O)N2Cc3ccccc3OC[C@H]2Cc2ccccc2)cc1
Ans: < 4.30

###

# Test system: MCF7
# Experiment Description: Cytotoxicity against human MCF7 cells after 18 hrs by MTT assay
# Assay type: functional, cell-based
# Assay Context: MCF7, 18 h
Assay Metric: IC50

| Mol Smiles | Assay Metric | Recorded Measurement |
| --- | --- | --- |
| COc1ccc2c(c1)OC[C@H](Cc1ccc(OCCN3CCCC3)cc1)N(S(=O)(=O)c1ccc(C)cc1)C2 | IC50 | > 50 µM |
| CCN(CC)CCOc1ccc(C[C@H]2COc3ccccc3CN2S(=O)(=O)c2ccc(C)cc2)cc1 | IC50 | 6.53 µM |
| COc1cccc2c1OC[C@H](Cc1ccc(OCCN3CCCC3)cc1)N(S(=O)(=O)c1ccc(C)cc1)C2 | IC50 | > 50 µM |
| Cc1ccc(S(=O)(=O)N2Cc3ccccc3OC[C@@H]2Cc2c[nH]c3ccccc23)cc1 | IC50 | > 50 µM |

Q: What value of IC50 has been recorded for this entry: CCN(CC)CCOc1ccc(C[C@H]2COc3c(cccc3OC)CN2S(=O)(=O)c2ccc(C)cc2)cc1
Ans: > 50 µM

###

# System: MDA-MB-231
# Experiment Description: Cytotoxicity against human MDA-MB-231 cells after 18 hrs by MTT assay
# Type: functional, cell-based
# Assay Context: MDA-MB-231, 18 h
Counter-ions that a name gives are not always drawn.
Assay Metric: IC50

| Compound | Measured On | Assay Metric | Recorded Measurement |
| --- | --- | --- | --- |
| Cc1ccc(S(=O)(=O)N2Cc3ccccc3OC[C@H]2Cc2ccccc2)cc1 | MDA-MB-231 | IC50 | > 50 µM |
| Cc1ccc(S(=O)(=O)N2Cc3ccccc3OCC2Cc2ccc(OCCN3CCOCC3)cc2)cc1 (stereo not drawn) | MDA-MB-231 | IC50 | > 50 µM |
| Cc1ccc(S(=O)(=O)N2Cc3ccccc3OC[C@@H]2C)cc1 | MDA-MB-231 | IC50 | > 50 µM |
| COc1ccc2c(c1)OC[C@H](Cc1ccc(OCCN(C)C)cc1)N(S(=O)(=O)c1ccc(C)cc1)C2 | MDA-MB-231 | IC50 | > 50 µM |
| Cc1ccc(S(=O)(=O)N2Cc3ccccc3OC[C@@H]2Cc2ccc(OCCN3CCCC3)cc2)cc1 | MDA-MB-231 | IC50 | 13 µM |

Q: Form: Entry = CC/C(=C(\c1ccccc1)c1ccc(OCCN(C)C)cc1)c1ccccc1 [TAMOXIFEN CITRATE] | System = MDA-MB-231 | IC50 = ____
Ans: 12.3 µM
